Molecular target: CRF-R2β
Assay: displacement of 125I-Sauvagine, membranes of CHO cells expressing CRFR2β, filtration assay
No end group written: not given here.
reported-metric: pKi
Please keep in mind that pKi is minus log10 of the molar concentration; only the number is needed.

INPUT: What value of pKi has been recorded for this entry: IVLSLDVPIGLLQILLEQARARAAREQATTNARILARVGHC-NH2 [human urocortin-related peptide]
OUTPUT: 9.64

These data points were gathered from patent US20020127221A1.
